- Test system: K562;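 further: after 48 h exposure read by CellTiter-Glo luminescence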
- protocol_details: cell viability relative to vehicle control; higher = less cytotoxic
- condition_details: 10 µM; SRSF2 genotype: SRSF2 wt/wt
Lab note - cut at 90% for cell viability: label 1 if strictly below, label 0 if not.

Observe how each entry below is paired with its result.
[[record]]
molecule = "OC[C@H]1O[C@H](OC[C@H]2O[C@H](OC[C@H]3O[C@H](O[C@]4(CO)O[C@H](CO)[C@@H](O)[C@@H]4O)[C@H](O)[C@@H](O)[C@@H]3O)[C@H](O)[C@@H](O)[C@H]2O)[C@H](O)[C@@H](O)[C@H]1O [Stachyose]"
cat = "label 0"

[[record]]
molecule = "C/C=C(/C)C(=O)O[C@H]1[C@@H](OC(=O)CC(C)C)c2c(ccc3ccc(=O)oc23)OC1(C)C [Praeruptorin E]"
cat = "label 1"

[[record]]
molecule = "COc1cc(C[C@@H](CO[C@@H]2O[C@H](CO)[C@@H](O)[C@H](O)[C@H]2O)[C@H](CO[C@@H]2O[C@H](CO)[C@@H](O)[C@H](O)[C@H]2O)Cc2ccc(O)c(OC)c2)ccc1O [Secoisolariciresinol diglucoside]"
cat = "label 0"

[[record]]
molecule = "CCCCCCCCCCCCCCCCCC[N+](C)(C)C [Trimethyloctadecylammonium bromide]"
cat = "label 1"


Confirm or reject: cell viability of Nc1cccc2c1CN(C1CCC(=O)NC1=O)C2=O (stereo unspecified) [Lenalidomide (CC-5013)] lies strictly below 90%
label 0
